Tested on: HT29 colon
Experiment: NCI tumour cell line growth inhibition, 48 h
Recorded TGI values for a group of molecules are listed next.
Observation type: TGI

[[record]]
molecule = "CC1(C)C(=O)N(O)C(C)(C)N1O"
reading = "> 10 µM"

[[record]]
molecule = "COc1cc2c(/C=C3/C(=O)Nc4ccc(Cl)cc43)c(Cl)n(Cc3ccccc3)c2cc1C"
reading = "> 100 µM"

[[record]]
molecule = "O=C1CC(=O)NC(=NN2C(=O)CSC2c2ccc(Cl)c(Cl)c2)N1 (stereo not drawn)"
reading = "> 100 µM"

[[record]]
molecule = "Cn1c(O)c(C(=O)Nc2cccs2)c(=O)[nH]c1=S"
reading = "34 µM"

[[record]]
molecule = "Fc1ccc(-c2nc3n(c2-c2ccncc2)CCS3)cc1"
reading = "> 25 µM"

[[record]]
molecule = "CN(C)c1ccc(/C=C/C=C\\C2=CC(=C\\C=C/C=C3C=CC(=[N+](C)C)C=C3)/Sc3ccccc32)cc1"
reading = "> 100 µM"

[[record]]
molecule = "CC(C)c1ccccc1SC1CC(=O)CC(Sc2ccccc2C(C)C)C12O[C@H](c1ccccc1)[C@@H](c1ccccc1)O2 (stereo partly drawn)"
reading = "> 100 µM"

[[record]]
molecule = "COc1cc(/C=C\\c2ccccn2)cc(OC)c1OC"
reading = "> 100 µM"

[[record]]
molecule = "CCOC(=O)Cc1c[nH]c(=S)[nH]c1=O"
reading = "> 100 µM"

[[record]]
molecule = "c1csc(-c2cscc2-c2ccsc2)c1"
reading = "> 100 µM"

[[record]]
molecule = "CCOC(=O)CSc1ccnc(=O)[nH]1"
reading = "> 100 µM"

[[record]]
molecule = "Cn1nc(Cc2ccc(Cl)cc2)n(N)c1=O"
reading = "> 100 µM"

[[record]]
molecule = "Clc1cccc(Cl)c1C=NC12CC3CC(CC(C3)C1)C2"
reading = "> 10 µM"


---

Recorded GI50 values for a group of compounds are listed next.
Test system: RPMI-8226 leukemia
Experiment: NCI tumour cell line growth inhibition, 48 h
Observation type: GI50

[[record]]
compound = "CN(C)c1ccc2nc3ccc(=[N+](C)C)cc-3oc2c1"
tgt = "RPMI-8226 leukemia"
reading = "684 nM"

[[record]]
compound = "CC1(C)CCC2(C(=O)OC3OC(CO)C(O)C(O)C3O)CC[C@]3(C)C(=CCC4C5(C)CC[C@H](OC6OC(C(=O)O)C(O)C(O)C6O)C(C)(C)C5CCC43C)C2C1 (stereo not given in full)"
tgt = "RPMI-8226 leukemia"
reading = "776 nM"

[[record]]
compound = "O=C(CCl)c1ccc([N+](=O)[O-])o1"
tgt = "RPMI-8226 leukemia"
reading = "873 nM"

[[record]]
compound = "CCOC(=O)Cc1c[nH]c(=S)[nH]c1=O"
tgt = "RPMI-8226 leukemia"
reading = "> 100000 nM"

[[record]]
compound = "CCn1c(-c2nonc2N)nc2cncc(C(=O)N3CCNCC3)c21"
tgt = "RPMI-8226 leukemia"
reading = "> 25000 nM"


---

System: MDA-MB-231 breast
Experiment: NCI tumour cell line growth inhibition, 48 h
*1 amine or outer side, *2 acyl side, *3 side chain or, on linkers, in order; H or OH if unused. Where a SMILES comes first, the peptide text is derived from it. Bridges are numbered along the chain shown (N, C = ends). [ ]: non-standard residue; d: D form. The star is where a group is joined. X38 = CC[C@H](C)[C@@H](N[*:1])[C@@H](O)CC(=O)[*:2]; NMeY = CN[C@@H](Cc1ccc(O)cc1)C(=O)O; dNMeL = CN[C@H](CC(C)C)C(=O)O; Hiv = CC(C)[C@H](O)C(=O)O; Pyruvoyl = CC(=O)C(=O)*
Recorded TGI values for a group of compounds are listed next.
Observation type: TGI

[[record]]
compound = "CC1(C)C(=O)N(O)C(C)(C)N1O"
reading = "> 10 µM"

[[record]]
compound = "CC1=C/C(=N\\OCC(=O)O)CC(c2ccc(C(C)C)cc2)C1 (stereo not given)"
reading = "> 100 µM"

[[record]]
compound = "CSc1nnc(CCSc2ccnc3c(C(F)(F)F)cccc23)o1"
reading = "> 100 µM"

[[record]]
compound = "CC[C@H](C)[C@H]1NC(=O)[C@@H](NC(=O)[C@@H](CC(C)C)N(C)C(=O)[C@@H]2CCCN2C(=O)C(C)=O)[C@@H](C)OC(=O)[C@H](Cc2ccc(OC)cc2)N(C)C(=O)[C@@H]2CCCN2C(=O)[C@H](CC(C)C)NC(=O)[C@H](C(C)C)OC(=O)C[C@@H]1O (Pyruvoyl-P[dNMeL]T[X38][Hiv]LP[NMeY](Me); ester 3-C)"
reading = "0.112 µM"

[[record]]
compound = "NC(=O)C(Nc1c(Cl)cccc1Cl)c1cc2cc(Br)ccc2nc1Cl (stereo not given)"
reading = "> 100 µM"


---

Test system: MDA-MB-231 breast
Experiment: NCI tumour cell line growth inhibition, 48 h; in the data active means GI50 below about 0.43 µM; inactive means the rest
Classes used: active, inactive

[[record]]
structure_as_smiles = "Nc1nc(/C=C\\c2ccc([N+](=O)[O-])o2)nc(N2CCN(c3ccccc3)CC2)n1"
classification = "inactive"

[[record]]
structure_as_smiles = "CCc1ccc(NC(=O)Nc2c[nH]c3ccccc23)cc1"
classification = "inactive"

[[record]]
structure_as_smiles = "COc1cc2nc(Cl)nc(Nc3cccc(C(=O)/C=C/c4ccccc4)c3)c2cc1OC"
classification = "inactive"

[[record]]
structure_as_smiles = "CC(C)(O)c1ccc(N2CCN(c3nnc(Cc4ccccc4)c4ccccc34)CC2)nc1"
classification = "inactive"

[[record]]
structure_as_smiles = "CN(C)CCNC(=O)c1cccn2c(=O)c3cc4ccccc4cc3nc12"
classification = "active"


---

Tested on: U251 CNS
Assay: NCI tumour cell line growth inhibition, 48 h
Where a SMILES comes first, the peptide text is derived from it. [ ]: non-standard residue; d: D form. Phe(F5) = N[CH](Cc1c(F)c(F)c(F)c(F)c1F)C(=O)O
The threshold is inclusive: TGI of exactly 20 µM counts as 1; values below receive 0.

[[record]]
molecule = "CN1CCc2c1nc(-c1ccccc1)c1c2N(C)CC1"
tgt = "U251 CNS"
classification = 1

[[record]]
molecule = "COc1ccc(Br)c2c1CC(C(=O)O)CC2 (stereo not given)"
tgt = "U251 CNS"
classification = 1

[[record]]
molecule = "CCN(CC)c1ccc(/C=C/c2cc(C)c3ccccc3n2)cc1"
tgt = "U251 CNS"
classification = 1

[[record]]
molecule = "COC(=O)C(CC(C)C)NC(=O)C(Cc1cnc[nH]1)NC(=O)CNC(=O)C(NC(=O)C(C)NC(=O)C(Cc1c[nH]c2ccccc12)NC(=O)C(CCC(=O)O)NC(=O)C(N)Cc1c(F)c(F)c(F)c(F)c1F)C(C)C (stereo not given) (H-[Phe(F5)]EWAVGHL-OMe; configuration not given here)"
tgt = "U251 CNS"
classification = 1

[[record]]
molecule = "C[C@H]1[C@H](C)N(Cc2ccccc2)P(=O)(C(O)/C=C/c2ccccc2)N1Cc1ccccc1 (stereo not given in full)"
tgt = "U251 CNS"
classification = 0

[[record]]
molecule = "CCN(CC)CCOc1ccc(C(=C(C)c2ccc(Cl)cc2)c2ccc(OCCN(CC)CC)cc2)cc1"
tgt = "U251 CNS"
classification = 0

[[record]]
molecule = "O=C(O)[C@@H]1C2CC([C@@H]1C(=O)O)[C@H](N1C(=O)CCC1=O)[C@@H]2Br (stereo not given in full)"
tgt = "U251 CNS"
classification = 1

[[record]]
molecule = "C[C@]12CC[C@H]3[C@@H](CCC4=CC(=O)CC[C@@H]43)[C@@H]1CC[C@@H]2OC(=O)N(CCCl)N=O"
tgt = "U251 CNS"
classification = 0

[[record]]
molecule = "CCOC(C[C@H](O)[C@H]1COC(=S)S1)OCC"
tgt = "U251 CNS"
classification = 1

[[record]]
molecule = "COc1ccc(OC)c2sc(N3C(=O)/C(=C/Cc4ccco4)N=C3c3ccccc3)nc12"
tgt = "U251 CNS"
classification = 1

[[record]]
molecule = "Fc1ccc2[nH]cc(Cc3c[nH]c4ccc(F)cc34)c2c1"
tgt = "U251 CNS"
classification = 1

[[record]]
molecule = "NCCCNCCCNCCCN"
tgt = "U251 CNS"
classification = 1

[[record]]
molecule = "C=C1C(=O)OC2CC3(C)C=CC(=O)C(=C)C3CC12 (stereo not given)"
tgt = "U251 CNS"
classification = 0

[[record]]
molecule = "CSc1nc2ccccc2c(=O)n1/N=C1\\C(=O)N(CN2CCCCC2)c2ccc(Cl)cc21"
tgt = "U251 CNS"
classification = 1

[[record]]
molecule = "Oc1ccccc1/C=N/Nc1nnc2c3ccccc3c3ccccc3c2n1"
tgt = "U251 CNS"
classification = 1

[[record]]
molecule = "O=C1NC(N2CCOCC2)=N/C1=C\\c1cccs1"
tgt = "U251 CNS"
classification = 1

[[record]]
molecule = "CN(C)CCNC(=O)c1cccn2c(=O)c3cc4ccccc4cc3nc12"
tgt = "U251 CNS"
classification = 0

[[record]]
molecule = "NC(=O)c1cc2ccccc2oc1=Nc1ccccc1"
tgt = "U251 CNS"
classification = 1

[[record]]
molecule = "O=C1CC(=O)NC(=NN2C(=O)CSC2c2ccc(Cl)c(Cl)c2)N1 (stereo not given)"
tgt = "U251 CNS"
classification = 1

[[record]]
molecule = "Cc1c(C#N)c2nnn(C)c(=O)n2c1-c1ccccc1"
tgt = "U251 CNS"
classification = 1

